As shown below, each of these compounds has a reported relative cell viability value.
system: HT-1080; assay: relative cell viability with RSL3 co-treatment (fraction of control); higher = stronger protection from RSL3-induced ferroptosis (higher viability); details: 10 µM;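 also: viability read as CCK-8 absorbance at 450 nm in cells co-exposed to the GPX4 inhibitor RSL3, relative to a 0.01% DMSO vehicle control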

- compound: "Cn1cc(C2=C(c3cn(C4CCN(Cc5ccccn5)CC4)c4ccccc34)C(=O)NC2=O)c2ccccc21"
  target-of-assay: "HT-1080"
  relative cell viability: 0.807
- compound: "C/C(O)=C(\\C#N)C(=O)Nc1cc(Br)ccc1Br"
  target-of-assay: "HT-1080"
  relative cell viability: 0.54
- compound: "CC(C)(C)c1cc(C=C(C#N)C#N)cc(Br)c1O"
  target-of-assay: "HT-1080"
  relative cell viability: 0.473
- compound: "COc1ccc(N(C(=O)Oc2c(C)cccc2C)c2ccnc(Nc3ccc(N4CCN(C)CC4)cc3)n2)c(OC)c1"
  target-of-assay: "HT-1080"
  relative cell viability: 0.813
- compound: "COc1ccc2c(c1)/C(=C/c1cnc[nH]1)C(=O)N2"
  target-of-assay: "HT-1080"
  relative cell viability: 0.797
- compound: "CCN1CCN(C(=O)Cc2ccc(Nc3ncc(F)c(Nc4ccc(C(=O)Nc5ccccc5Cl)cc4)n3)cc2)CC1 [Aurora A Inhibitor I]"
  target-of-assay: "HT-1080"
  relative cell viability: 0.473

The values you see were collected from the supplement of paper PMC9588786.
